ASSAY NAME: NCI Yeast Anticancer Drug Screen. Data for the cln2 rad14 strain (AID 165);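 note: 0% = growth equal to vehicle treated cultures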
CONDITIONS: S. cerevisiae cln2 rad14 strain, at 50.0 µM, hits give high values
The panel holds about 79,000 compounds, 15% with a hit somewhere; the sample as a whole holds those more often.
Entries annotated with measured growth inhibition
A number alone suffices; assume %.

Some molecules with recorded growth inhibition:
• CN1C[C@H]2[C@@H](C1=O)[C@H](c1ccccc1)ON2C = 13.6
• NC1(P(=O)(O)O)CCCCC1 = -52
• CN(C)C(=O)c1cc(N(CCCl)CCCl)c([N+](=O)[O-])cc1[N+](=O)[O-] = 2.3

Shifting focus to the molecule that follows.
Prompt line: Reported growth inhibition, molecule C1CCNCC1.O=C([CH-]C(=O)C(F)(F)F)c1ccc2c(c1)C(=O)c1ccccc1-2.O=C([CH-]C(=O)C(F)(F)F)c1ccc2c(c1)C(=O)c1ccccc1-2.O=C([CH-]C(=O)C(F)(F)F)c1ccc2c(c1)C(=O)c1ccccc1-2.O=C([CH-]C(=O)C(F)(F)F)c1ccc2c(c1)C(=O)c1ccccc1-2.[Eu+3] : ____
Response line: 61.5
